All figures here come from patent US20240115745A1.

molecular target: T1, fibroblast activation protein (FAP) on FAP-expressing human WI-38 fibroblasts (human, UniProt Q12884 1-760); assay: competitive FACS on WI-38 cells vs 3 nM Cy5-labeled probe; A = pIC50 >7.0
T1 construct: Endogenous FAP on WI-38 cells (ECACC) in the FACS assay; also called human FAP
Bridges are numbered along the chain shown (N, C = ends). The star is where a group is joined. DOTA = O=C(O)CN1CCN(CC(=O)O)CCN(CC(=O)*)CCN(CC(=O)O)CC1; Hexanoyl = CCCCCC(=O)*
test readout: pIC50 Category (FACS)

Ask | Would you kindly share the measured pIC50 Category (FACS) for Hexanoyl-CPPTQFCDK(DOTA)-NH2 (disulfide 1-7; SMILES CCCCCC(=O)N[C@H]1CSSC[C@@H](C(=O)N[C@@H](CC(=O)O)C(=O)N[C@@H](CCCCNC(=O)CN2CCN(CC(=O)O)CCN(CC(=O)O)CCN(CC(=O)O)CC2)C(N)=O)NC(=O)[C@H](Cc2ccccc2)NC(=O)[C@H](CCC(N)=O)NC(=O)[C@H]([C@@H](C)O)NC(=O)[C@@H]2CCCN2C(=O)[C@@H]2CCCN2C1=O) [compound Hex-[Cys-Pro-Pro-Thr-Gln-Phe-Cys]-Asp-Lys(DOTA)-NH2 (1016)] ?
Reply | > 7 pIC50
